Entry source: ChEMBL document CHEMBL5244239

target: Penicillin-binding protein 2x (Streptococcus pneumoniae serotype 4 (strain ATCC BAA-334 / TIGR4)); test: Binding affinity to Streptococcus pneumoniae PBP2x
Sequence (P14677 whole entry): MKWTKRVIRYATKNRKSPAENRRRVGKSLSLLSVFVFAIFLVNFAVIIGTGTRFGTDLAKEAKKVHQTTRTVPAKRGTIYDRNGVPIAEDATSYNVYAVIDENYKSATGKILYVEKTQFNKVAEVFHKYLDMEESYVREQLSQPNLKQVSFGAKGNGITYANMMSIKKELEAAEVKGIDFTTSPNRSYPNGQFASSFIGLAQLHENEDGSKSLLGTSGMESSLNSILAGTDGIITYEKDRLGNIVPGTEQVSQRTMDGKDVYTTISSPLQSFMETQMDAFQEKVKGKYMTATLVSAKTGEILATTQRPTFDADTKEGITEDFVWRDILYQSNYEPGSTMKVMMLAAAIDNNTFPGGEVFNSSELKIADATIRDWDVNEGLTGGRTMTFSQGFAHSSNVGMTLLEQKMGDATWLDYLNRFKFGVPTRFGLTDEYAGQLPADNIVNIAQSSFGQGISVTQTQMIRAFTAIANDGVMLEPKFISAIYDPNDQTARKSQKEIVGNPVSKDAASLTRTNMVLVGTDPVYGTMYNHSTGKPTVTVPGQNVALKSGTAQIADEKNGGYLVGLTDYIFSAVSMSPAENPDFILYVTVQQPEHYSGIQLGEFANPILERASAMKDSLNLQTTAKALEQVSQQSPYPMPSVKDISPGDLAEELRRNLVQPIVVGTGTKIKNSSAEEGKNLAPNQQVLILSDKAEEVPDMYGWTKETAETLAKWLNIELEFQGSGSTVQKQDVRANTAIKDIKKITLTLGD
recorded_endpoint: IC50

Kindly indicate its recorded IC50. Item: `CCCCOc1ccc2cc(S(=O)(=O)Nc3ccccc3C(=O)O)ccc2c1`
391 µM

====

target: MecA (Staphylococcus aureus, UniProt Q7DHH4); assay: Binding affinity to methicillin resistant Staphylococcus aureus PBP2a by MST method
Sequence (Q7DHH4 whole entry): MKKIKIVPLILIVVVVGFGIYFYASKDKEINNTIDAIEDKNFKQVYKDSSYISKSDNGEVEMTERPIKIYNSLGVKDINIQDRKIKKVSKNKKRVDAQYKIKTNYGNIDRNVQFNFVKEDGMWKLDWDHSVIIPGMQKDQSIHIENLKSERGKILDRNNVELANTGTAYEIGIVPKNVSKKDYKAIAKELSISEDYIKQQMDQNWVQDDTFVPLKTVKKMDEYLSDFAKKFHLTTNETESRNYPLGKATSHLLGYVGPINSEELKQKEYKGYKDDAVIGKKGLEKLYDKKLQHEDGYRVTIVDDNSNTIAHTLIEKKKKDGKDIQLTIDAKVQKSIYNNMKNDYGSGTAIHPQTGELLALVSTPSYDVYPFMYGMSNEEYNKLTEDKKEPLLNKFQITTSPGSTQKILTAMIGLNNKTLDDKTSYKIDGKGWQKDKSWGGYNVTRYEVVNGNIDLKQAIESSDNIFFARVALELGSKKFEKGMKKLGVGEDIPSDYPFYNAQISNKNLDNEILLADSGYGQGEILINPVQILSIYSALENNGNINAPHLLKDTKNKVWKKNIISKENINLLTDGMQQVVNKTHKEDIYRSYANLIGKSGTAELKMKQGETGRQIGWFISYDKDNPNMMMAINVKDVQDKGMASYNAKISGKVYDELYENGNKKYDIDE
recorded_endpoint: Kd (µM)
Dear colleague, please return just the value in µM, with no unit written.

Could you please provide reported Kd for `COC(=O)C1=C[C@]2(C)C[C@@]34CC[C@@H]5[C@H](C=CC(=O)C5(C)C)[C@]35OC[C@]14[C@](C)(CC2=O)O5` ? Thanks!
18.4
